- study system: MMP-1 (Homo sapiens, UniProt P03956)
- Sequence (P03956 100-469): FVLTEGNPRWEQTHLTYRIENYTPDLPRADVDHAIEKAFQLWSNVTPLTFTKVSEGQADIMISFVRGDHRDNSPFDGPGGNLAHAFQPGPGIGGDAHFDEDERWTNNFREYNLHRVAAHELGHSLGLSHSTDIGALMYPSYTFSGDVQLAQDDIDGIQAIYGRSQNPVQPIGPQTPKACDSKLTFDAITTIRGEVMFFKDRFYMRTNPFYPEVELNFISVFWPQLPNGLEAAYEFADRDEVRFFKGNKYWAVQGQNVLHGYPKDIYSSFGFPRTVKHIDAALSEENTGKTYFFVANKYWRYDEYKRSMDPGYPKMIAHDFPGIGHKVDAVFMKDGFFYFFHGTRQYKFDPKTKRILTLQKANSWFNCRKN
- assay remarks: MMP-1 inhibitory action (Type I collagen Activity Measurement kit, FITC-labeled collagen type I)
- Type: biochemical
- test conditions: MMP-1 inhibitory action, FITC-labeled collagen type I, 37° C. for 3 hr; read-out: IC50 MMP1 (Experimental Example 2)
pIC50: −log10 of the molar value. Counter-ions that a name gives are not always drawn.
Hi there, I'd appreciate the recorded pIC50 for every entry that follows.

Prompt: I have this compound here, O=C(O)C1(NS(=O)(=O)c2ccc(-c3ccc(Cl)cc3)cc2)CC1c1cccc(Oc2cccnc2)c1 (stereo not shown) [Example 1-68] , and I need its recorded pIC50.
Completion: ≤ 6.00

Prompt: I have this compound here, O=C(O)C1(NS(=O)(=O)c2ccc(-c3ccc(Cl)cc3)s2)CC1(CCO)c1ccccc1 (stereo not shown) [Example 2-263] , and I need its recorded pIC50.
Completion: ≤ 6.00

Prompt: I have this compound here, O=C(O)[C@]1(NS(=O)(=O)c2ccc3c(c2)Cc2cc(Cl)ccc2-3)C[C@@H]1c1ccccc1 [Example 2-142] , and I need its recorded pIC50.
Completion: ≤ 6.00

Prompt: I have this compound here, O=C(O)[C@]1(NS(=O)(=O)c2ccc(C3=CCNCC3)s2)C[C@@H]1c1ccccc1 [Example 2-2, hydrochloride] , and I need its recorded pIC50.
Completion: ≤ 5.00

----------
Hi there, I'd appreciate the recorded IC50 for every entry that follows.
- study system: aggrecanase-1 (Homo sapiens)
- Sequence (O75173 213-837, species assumed): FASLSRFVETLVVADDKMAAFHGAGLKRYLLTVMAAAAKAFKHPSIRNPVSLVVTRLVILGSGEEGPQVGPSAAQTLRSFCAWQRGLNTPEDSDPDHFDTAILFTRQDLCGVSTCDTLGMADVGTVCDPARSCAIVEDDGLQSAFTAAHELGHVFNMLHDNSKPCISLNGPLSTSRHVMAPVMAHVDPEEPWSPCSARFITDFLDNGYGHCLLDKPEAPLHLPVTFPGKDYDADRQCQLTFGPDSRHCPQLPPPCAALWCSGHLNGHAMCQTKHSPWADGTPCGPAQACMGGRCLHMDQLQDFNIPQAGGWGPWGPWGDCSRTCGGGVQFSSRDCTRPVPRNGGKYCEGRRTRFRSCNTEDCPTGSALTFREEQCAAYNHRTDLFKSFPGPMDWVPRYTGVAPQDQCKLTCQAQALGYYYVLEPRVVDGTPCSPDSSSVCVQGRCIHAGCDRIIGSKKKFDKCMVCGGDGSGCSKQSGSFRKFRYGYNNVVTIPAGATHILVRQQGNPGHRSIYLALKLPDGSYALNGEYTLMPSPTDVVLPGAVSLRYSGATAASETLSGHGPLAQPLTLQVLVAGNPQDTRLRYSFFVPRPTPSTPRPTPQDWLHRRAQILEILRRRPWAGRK
- assay remarks: Aggrecanase-1 inhibitory action (Particle Assay, GAG release from aggrecan-containing polyacrylamide particles)
- Type: biochemical
- test conditions: aggrecanase-1 inhibitory action; read-out: IC50 AG1 (Experimental Example 1)

Prompt: I have this molecule here, O=C(O)C1(NS(=O)(=O)c2ccc(-c3ccc(Cl)cc3)cc2)CC1c1cccc(O)c1 (stereo not shown) , and I need its recorded IC50.
Completion: < 1 µM

Prompt: I have this molecule here, CC(=O)OCCc1cccc(C2CC2(NS(=O)(=O)c2ccc(-c3ccc(Cl)cc3)s2)C(=O)O)c1 (stereo not shown) , and I need its recorded IC50.
Completion: < 0.1 µM

Prompt: I have this molecule here, CC(=O)c1ccc(S(=O)(=O)NC2(C(=O)O)CC2c2ccccc2)cc1 (stereo not shown) , and I need its recorded IC50.
Completion: ≥ 10 µM

Prompt: I have this molecule here, `O=C(O)[C@]1(NS(=O)(=O)/C=C/c2ccc(Cl)cc2)C[C@@H]1c1ccccc1` , and I need its recorded IC50.
Completion: ≥ 10 µM

----------
- study system: Recombinant Human MMP-13 (Homo sapiens, UniProt P45452)
- Construct: purchased R&D systems 511-MM
- assay remarks: MMP-13 inhibitory activity (MMP-13 specific fluorescent substrate with quencher)
- Type: biochemical
- test conditions: Recombinant Human MMP-13, fluorescent substrate, 25° C. for 1 h; read-out: IC50 MMP13 (Experimental Example 3)
pIC50: −log10 of the molar value.
Hi there, I'd appreciate the recorded pIC50 for every entry that follows.

Prompt: I have this molecule here, CN(C)C(=O)CCc1ccccc1C1CC1(NS(=O)(=O)c1ccc(-c2cc(C(F)(F)F)on2)s1)C(=O)O (stereo not drawn) [Example 2-231] , and I need its recorded pIC50.
Completion: > 7.00

Prompt: I have this molecule here, COCCN(C)Cc1ccccc1C1CC1(NS(=O)(=O)c1ccc(-c2ccc(Cl)cc2)s1)C(=O)O (stereo not drawn) [Example 2-89] , and I need its recorded pIC50.
Completion: ≤ 6.00

Prompt: I have this molecule here, O=C(O)C1(NS(=O)(=O)c2ccc(-c3ccc(Cl)cc3)cc2)CC1c1cccc(OCCn2ccnc2)c1 (stereo not drawn) [Example 1-83] , and I need its recorded pIC50.
Completion: > 7.00

Prompt: I have this molecule here, O=C(O)C1(NS(=O)(=O)N2CC=C(c3ccc(Cl)cc3)CC2)CC1c1ccccc1 (stereo not drawn) [Example 2-149] , and I need its recorded pIC50.
Completion: > 7.00

Prompt: I have this molecule here, O=C(O)[C@]1(NS(=O)(=O)c2ccc(-c3cc(-c4ccccc4)on3)s2)C[C@@H]1c1ccccc1 [Example 2-114] , and I need its recorded pIC50.
Completion: > 7.00

Prompt: I have this molecule here, O=C(O)C1(NS(=O)(=O)N2CCN(c3nc4ccccc4s3)CC2)CC1c1ccccc1 (stereo not drawn) [Example 2-157] , and I need its recorded pIC50.
Completion: ≤ 6.00

Prompt: I have this molecule here, O=C(O)C1(NS(=O)(=O)c2ccc3c(c2)Cc2cc(Cl)ccc2-3)CC1c1ccccc1 (stereo not drawn) [Example 1-94] , and I need its recorded pIC50.
Completion: > 7.00

Prompt: I have this molecule here, O=C(O)C1(NS(=O)(=O)c2ccc(-c3ccc(Cl)cc3)s2)CC1c1cccc(NS(=O)(=O)C(F)(F)F)c1 (stereo not drawn) [Example 1-132] , and I need its recorded pIC50.
Completion: > 7.00

Prompt: I have this molecule here, O=C(O)C1(NS(=O)(=O)c2ccc(Cl)s2)CC1c1ccccc1 (stereo not drawn) [Example 2-82] , and I need its recorded pIC50.
Completion: ≤ 5.00

Prompt: I have this molecule here, O=C(O)[C@]1(NS(=O)(=O)c2ccc(-c3cc(C(F)(F)F)on3)s2)C[C@@H]1c1cccc(Br)c1 [Example 2-169] , and I need its recorded pIC50.
Completion: > 7.00

Prompt: I have this molecule here, CN1CCN(C(=O)c2cccc(C3CC3(NS(=O)(=O)c3ccc(-c4ccc(Cl)cc4)s3)C(=O)O)c2)CC1 (stereo not drawn) [Example 2-200] , and I need its recorded pIC50.
Completion: > 6.00

Prompt: I have this molecule here, O=C(O)C1(NS(=O)(=O)c2ccc(-c3ccc(O)cc3)s2)CC1c1ccccc1 (stereo not drawn) [Example 2-65] , and I need its recorded pIC50.
Completion: > 6.00

Prompt: I have this molecule here, O=C(O)COc1ccccc1C1CC1(NS(=O)(=O)c1ccc(-c2ccc(Cl)cc2)s1)C(=O)O (stereo not drawn) [Example 1-139] , and I need its recorded pIC50.
Completion: > 6.00

Prompt: I have this molecule here, O=C(O)C1(NS(=O)(=O)c2ccc(-c3ccc(Cl)cc3)cc2)CC1c1cccc(Oc2cccnc2)c1 (stereo not drawn) [Example 1-68] , and I need its recorded pIC50.
Completion: > 7.00

Prompt: I have this molecule here, O=C(OCCCc1ccccc1C1CC1(NS(=O)(=O)c1ccc(-c2cc(C(F)(F)F)on2)s1)C(=O)O)N1CCOCC1 (stereo not drawn) [Example 2-253] , and I need its recorded pIC50.
Completion: > 7.00

Prompt: I have this molecule here, O=C(CN1CCOCC1)Nc1cccc(C2CC2(NS(=O)(=O)c2ccc(-c3cc(C(F)(F)F)on3)s2)C(=O)O)c1 (stereo not drawn) [Example 2-260] , and I need its recorded pIC50.
Completion: > 7.00

Prompt: I have this molecule here, O=C(O)C1(NS(=O)(=O)N2CC(Oc3ccc(Cl)cc3)C2)CC1c1ccccc1 (stereo not drawn) [Example 2-15] , and I need its recorded pIC50.
Completion: ≤ 6.00

Prompt: I have this molecule here, O=C(O)[C@]1(NS(=O)(=O)/C=C/c2ccc(Cl)cc2)C[C@@H]1c1ccccc1 [Example 2-151] , and I need its recorded pIC50.
Completion: ≤ 6.00

Prompt: I have this molecule here, O=C(Nc1cccc(C2CC2(NS(=O)(=O)c2ccc(-c3ccc(Cl)cc3)s2)C(=O)O)c1)N1CCOCC1 (stereo not drawn) [Example 2-251] , and I need its recorded pIC50.
Completion: > 6.00

Prompt: I have this molecule here, O=C(O)C1(NS(=O)(=O)N2CCn3c(nnc3-c3ccccc3)C2)CC1c1ccccc1 (stereo not drawn) [Example 2-126] , and I need its recorded pIC50.
Completion: ≤ 5.00

Prompt: I have this molecule here, O=C(O)C1(NS(=O)(=O)c2ccc(-c3ccc(Cl)cc3)s2)CC1c1ccccc1OCc1ccccc1 (stereo not drawn) [Example 1-84] , and I need its recorded pIC50.
Completion: > 6.00

Prompt: I have this molecule here, O=C(O)C1(NS(=O)(=O)c2ccc(-c3ccc(Cl)cc3)s2)CC1Cn1nnc2ccccc2c1=O (stereo not drawn) [Example 2-47] , and I need its recorded pIC50.
Completion: > 6.00

Prompt: I have this molecule here, CC(C)(C)OC(=O)N1CC=C(c2ccc(S(=O)(=O)N[C@@]3(C(=O)O)C[C@@H]3c3ccccc3)s2)CC1 [Example 2] , and I need its recorded pIC50.
Completion: ≤ 5.00

Prompt: I have this molecule here, C=CC1CC1(NS(=O)(=O)c1ccc(-c2ccc(Cl)cc2)s1)C(=O)O (stereo not drawn) [Example 2-46] , and I need its recorded pIC50.
Completion: ≤ 6.00

Prompt: I have this molecule here, O=C1CCCN1c1ccc(S(=O)(=O)N[C@@]2(C(=O)O)C[C@@H]2c2ccccc2)s1 [Example 2-163] , and I need its recorded pIC50.
Completion: ≤ 5.00

Prompt: I have this molecule here, NCc1ccc(C2CC2(NS(=O)(=O)c2ccc(-c3ccc(Cl)cc3)s2)C(=O)O)cc1 (stereo not drawn) [Example 2-265] , and I need its recorded pIC50.
Completion: > 6.00

Prompt: I have this molecule here, O=C(O)C1(NS(=O)(=O)N2CCC(Oc3ccc(F)cc3)CC2)CC1c1ccccc1 (stereo not drawn) [Example 2-145] , and I need its recorded pIC50.
Completion: ≤ 6.00

Prompt: I have this molecule here, Nc1cccc(C2CC2(NS(=O)(=O)c2ccc(-c3ccc(Cl)cc3)cc2)C(=O)O)c1 (stereo not drawn) [Example 1-18] , and I need its recorded pIC50.
Completion: > 7.00

Prompt: I have this molecule here, O=C1CCCCN1c1ccc(S(=O)(=O)N[C@@]2(C(=O)O)C[C@@H]2c2ccccc2)s1 [Example 2-164] , and I need its recorded pIC50.
Completion: ≤ 5.00

Prompt: I have this molecule here, O=C(Cc1cccc(C2CC2(NS(=O)(=O)c2ccc(-c3cc(C(F)(F)F)on3)s2)C(=O)O)c1)N[C@H]1CC[C@H](O)CC1 (stereo partly drawn) [Example 2-233] , and I need its recorded pIC50.
Completion: > 7.00
